Measured Endpoint: IC50 (µM)
Dear colleague, please return just the value in µM, with no unit written.

Give the reported IC50 for `COc1ccc(F)cc1C(=O)NCc1ccc(-c2nn([C@H](C)C(F)(F)F)c(N)c2C(N)=O)cc1` (system: Tyrosine-protein kinase BTK (Homo sapiens, UniProt Q06187)).
Sequence (Q06187 whole entry): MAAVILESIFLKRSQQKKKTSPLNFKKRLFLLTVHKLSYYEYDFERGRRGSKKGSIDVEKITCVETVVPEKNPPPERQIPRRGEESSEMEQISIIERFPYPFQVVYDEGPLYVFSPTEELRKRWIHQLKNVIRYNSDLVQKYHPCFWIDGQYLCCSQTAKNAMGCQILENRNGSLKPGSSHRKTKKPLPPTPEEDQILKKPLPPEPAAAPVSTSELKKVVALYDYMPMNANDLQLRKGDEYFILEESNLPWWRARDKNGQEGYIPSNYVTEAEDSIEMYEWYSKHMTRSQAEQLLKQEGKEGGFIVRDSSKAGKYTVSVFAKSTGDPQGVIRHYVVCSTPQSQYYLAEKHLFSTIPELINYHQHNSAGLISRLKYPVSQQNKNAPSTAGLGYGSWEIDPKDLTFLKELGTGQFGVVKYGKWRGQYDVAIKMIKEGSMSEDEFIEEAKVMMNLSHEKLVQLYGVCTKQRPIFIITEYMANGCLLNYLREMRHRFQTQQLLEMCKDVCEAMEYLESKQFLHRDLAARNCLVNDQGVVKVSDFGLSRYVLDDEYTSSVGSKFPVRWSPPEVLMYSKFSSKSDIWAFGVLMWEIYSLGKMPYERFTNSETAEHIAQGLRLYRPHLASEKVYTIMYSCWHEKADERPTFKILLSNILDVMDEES
0.0212

---

# Assay Info: clinical
# Run Parameters: human
Measured Endpoint: half-life (h)
Dear colleague, please return just the value in h, with no unit written.

// returns reported half-life for input `COc1ccc(F)cc1C(=O)NCc1ccc(-c2nn([C@H](C)C(F)(F)F)c(N)c2C(N)=O)cc1`
19

// returns reported half-life for input Cc1nsc(-c2nnc3n2CCN(C(=O)c2ccc(F)cc2)[C@@H]3C)n1 [FEZOLINETANT]
9.6
